Target: human DP2 (Homo sapiens)
Construct: expressed in transfected cells; membranes prepared
Test Protocol: DP-2 binding inhibition assay (3H-PGD2, membranes of DP2-expressing K562 cells)
Cond: 0.1% BSA, read-out: EC50 (nM) 0.1% BSA
The following compounds are listed with their measured log10(EC50) values.
A value of 2 here means EC50 of 100 in nM, since values are log10.

[
  {
    "Compound": "N#Cc1cc2c(cc1Oc1ccc(C(=O)Nc3ccc(C(F)(F)F)nc3)cc1)OCCC2C(=O)O (stereo not shown)",
    "Measured Endpoint": "log10(EC50)",
    "Observed Measurement": 1.23
  }
]

# context switch: different compound, same log10(EC50)
Entry Cc1csc(NC(=O)c2ccc(Oc3cc4c(cc3C#N)C(C(=O)O)CCO4)cc2)n1 (stereo not shown) : reported log10(EC50) = ?
1.83

###

The following compounds are listed with their measured EC50 values.
Target: human DP2 (Homo sapiens, UniProt Q9Y5Y4)
Construct: expressed in transfected cells; membranes prepared
Test Protocol: DP-2 binding inhibition assay (3H-PGD2, membranes of DP2-expressing K562 cells)
Cond: 4% HSA, read-out: EC50 (nM) 4% HSA
Report the figure in nM without appending any unit label.

Solved entries (count: 5):
[
  {
    "Compound": "COc1ccc(-c2ccc(NC(=O)c3ccc(Oc4cc5c(cc4Cl)C(C(=O)O)CCO5)cc3)nc2)c(OC)n1 (centres unmarked) [Example 74]",
    "Target": "human DP2 (Homo sapiens, UniProt Q9Y5Y4)",
    "Observed Measurement": 794
  },
  {
    "Compound": "O=C(Nc1cnc(-c2ccc(Cl)cc2)cn1)c1ccc(Oc2cc3c(cc2Cl)C(C(=O)O)CCO3)cc1 (centres unmarked) [Example 95]",
    "Target": "human DP2 (Homo sapiens, UniProt Q9Y5Y4)",
    "Observed Measurement": 365
  },
  {
    "Compound": "O=C(Nc1ccc(-c2cccc(Cl)c2)nc1)c1ccc(Oc2cc3c(cc2Cl)C(C(=O)O)CCO3)cc1 (centres unmarked) [Example 124]",
    "Target": "human DP2 (Homo sapiens, UniProt Q9Y5Y4)",
    "Observed Measurement": 133
  },
  {
    "Compound": "COc1cccc(CCNC(=O)c2ccc(Oc3cc4c(cc3Cl)C(C(=O)O)CCO4)cc2)n1 (centres unmarked) [Example 218]",
    "Target": "human DP2 (Homo sapiens, UniProt Q9Y5Y4)",
    "Observed Measurement": 404
  },
  {
    "Compound": "COc1ccc(-c2ccc(NC(=O)c3ccc(Oc4cc5c(cc4Cl)C(C(=O)O)CCO5)cc3)nn2)c(OC)n1 (centres unmarked) [Example 69]",
    "Target": "human DP2 (Homo sapiens, UniProt Q9Y5Y4)",
    "Observed Measurement": 1780
  }
]

Entry O=C(Nc1cccc(C(F)(F)F)n1)c1ccc(Oc2cc3c(cc2Cl)C(C(=O)O)CCO3)cc1 (centres unmarked) [Example 28] : reported EC50 = ?
187

Then Cc1cc(-c2cccc(NC(=O)c3ccc(Oc4cc5c(cc4Cl)C(C(=O)O)CCO5)cc3)n2)ccc1F (centres unmarked) [Example 84] ?
144

Then O=C(Nc1nc(-c2ccc(F)c(F)c2)cs1)c1ccc(Oc2cc3c(cc2Cl)C(C(=O)O)CCO3)cc1 (centres unmarked) [Example 154] ?
59

Then O=C(Nc1nnc(-c2ccccc2)s1)c1ccc(Oc2cc3c(cc2Cl)C(C(=O)O)CCO3)cc1 (centres unmarked) [Example 148] ?
5460

Then CCOc1cccc(NC(=O)c2ccc(Oc3cc4c(cc3Cl)C(C(=O)O)CCO4)cc2)n1 (centres unmarked) [Example 78] ?
740

###

The following compounds are listed with their measured EC50 values.
Target: human DP2 (Homo sapiens)
Construct: expressed in transfected cells; membranes prepared
Test Protocol: DP-2 binding inhibition assay (3H-PGD2, membranes of DP2-expressing K562 cells)
Cond: 4% HSA, read-out: EC50 (nM) 4% HSA
Report the figure in nM without appending any unit label.

[
  {
    "Compound": "O=C(Nc1cncc(-c2ccccc2)n1)c1ccc(Oc2cc3c(cc2Cl)C(C(=O)O)CCO3)cc1 (stereo not drawn)",
    "Measured Endpoint": "EC50",
    "Display Unit": "nM",
    "Observed Measurement": 401
  },
  {
    "Compound": "O=C(Nc1ccn(-c2ccccc2)n1)c1ccc(Oc2cc3c(cc2Cl)C(C(=O)O)CCO3)cc1 (stereo not drawn)",
    "Measured Endpoint": "EC50",
    "Display Unit": "nM",
    "Observed Measurement": 97.5
  },
  {
    "Compound": "CSc1ccc(-c2cccc(NC(=O)c3ccc(Oc4cc5c(cc4Cl)C(C(=O)O)CCO5)cc3)n2)cc1 (stereo not drawn)",
    "Measured Endpoint": "EC50",
    "Display Unit": "nM",
    "Observed Measurement": 71.3
  }
]

Write down the reported EC50 of N#Cc1cc2c(cc1Oc1ccc(C(=O)Nc3ccc4cc(Cl)ccc4n3)cc1)OCCC2C(=O)O (stereo not drawn) , test system: human DP2 (Homo sapiens).
357

Then O=C(Nc1ccc(-c2ccc(Cl)cc2)cn1)c1ccc(Oc2cc3c(cc2Cl)C(C(=O)O)CCO3)cc1 (stereo not drawn) ?
342

###

The following molecules are listed with their measured EC50 values.
Target: human DP2 (Homo sapiens, UniProt Q9Y5Y4)
Construct: expressed in transfected cells; membranes prepared
Test Protocol: DP-2 binding inhibition assay (3H-PGD2, membranes of DP2-expressing K562 cells)
Cond: 4% HSA, read-out: EC50 (nM) 4% HSA

Solved entries (count: 5):
[
  {
    "Molecule": "COc1ccc(-c2ccc(NC(=O)c3ccc(Oc4cc5c(cc4Cl)C(C(=O)O)CCO5)cc3)nn2)cn1 (stereo not drawn)",
    "EC50": "869 nM"
  },
  {
    "Molecule": "Cc1ccc(-c2ccc(NC(=O)c3ccc(Oc4cc5c(cc4Cl)C(C(=O)O)CCO5)cc3)nn2)cc1 (stereo not drawn)",
    "EC50": "327 nM"
  },
  {
    "Molecule": "O=C(NCCc1cccnc1-c1ccccc1Cl)c1ccc(Oc2cc3c(cc2Cl)C(C(=O)O)CCO3)cc1 (stereo not drawn)",
    "EC50": "998 nM"
  },
  {
    "Molecule": "O=C(Nc1ccnc(-c2cccc(Cl)c2)c1)c1ccc(Oc2cc3c(cc2Cl)C(C(=O)O)CCO3)cc1 (stereo not drawn)",
    "EC50": "437 nM"
  },
  {
    "Molecule": "CC(C)c1nsc(NC(=O)c2ccc(Oc3cc4c(cc3Cl)C(C(=O)O)CCO4)cc2)n1 (stereo not drawn)",
    "EC50": "849 nM"
  }
]

# context switch: different molecule, same EC50
Entry O=C(Nc1ccc2ccccc2n1)c1ccc(Oc2cc3c(cc2Cl)C(C(=O)O)CCO3)cc1 (stereo not drawn) : reported EC50 = ?
586 nM

###

The following molecules are listed with their measured EC50 values.
Target: human DP2 (Homo sapiens, UniProt Q9Y5Y4)
Construct: expressed in transfected cells; membranes prepared
Sequence (Q9Y5Y4 1-395): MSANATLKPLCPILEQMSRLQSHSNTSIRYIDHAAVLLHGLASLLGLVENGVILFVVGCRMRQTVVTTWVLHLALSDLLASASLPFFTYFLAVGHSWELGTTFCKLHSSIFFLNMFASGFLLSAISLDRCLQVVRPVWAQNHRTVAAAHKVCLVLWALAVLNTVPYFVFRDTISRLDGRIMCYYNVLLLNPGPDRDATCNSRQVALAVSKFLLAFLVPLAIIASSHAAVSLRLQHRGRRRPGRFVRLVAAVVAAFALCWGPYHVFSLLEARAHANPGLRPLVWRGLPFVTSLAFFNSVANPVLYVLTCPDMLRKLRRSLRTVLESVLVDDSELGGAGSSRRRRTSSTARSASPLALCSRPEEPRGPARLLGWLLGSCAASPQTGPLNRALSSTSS
Test Protocol: DP-2 binding inhibition assay (3H-PGD2, membranes of DP2-expressing K562 cells)
Cond: 0.1% BSA, read-out: EC50 (nM) 0.1% BSA
Number first, unit second.

Solved entries (count: 3):
[
  {
    "Molecule": "Cc1cc(C(=O)Nc2ccc(C(F)(F)F)nc2)ccc1Oc1cc2c(cc1C#N)C(C(=O)O)CCO2 (centres unmarked) [Example 14]",
    "EC50": "55.8 nM"
  },
  {
    "Molecule": "N#Cc1cc2c(cc1Oc1ccc(C(=O)Nc3ccc4cn[nH]c4c3)cc1)OCCC2C(=O)O (centres unmarked) [Example 193]",
    "EC50": "36.7 nM"
  },
  {
    "Molecule": "N#Cc1cc2c(cc1Oc1ccc(C(=O)Nc3ccc4[nH]ncc4c3)cc1)OCCC2C(=O)O (centres unmarked) [Example 192]",
    "EC50": "492 nM"
  }
]

Entry O=C(Nc1cnc2cc(Cl)ccc2n1)c1ccc(Oc2cc3c(cc2Cl)C(C(=O)O)CCO3)cc1 (centres unmarked) [Example 15] : reported EC50 = ?
17.9 nM

Then N#Cc1cc2c(cc1Oc1ccc(C(=O)Nc3nc4ccccc4s3)cc1)OCCC2C(=O)O (centres unmarked) [Example 194] ?
10.7 nM

Then Cc1cnc(NC(=O)c2ccc(Oc3cc4c(cc3C#N)C(C(=O)O)CCO4)cc2)s1 (centres unmarked) [Example 176] ?
62.7 nM

Then N#Cc1cc2c(cc1Oc1ccc(C(=O)Nc3nc4ccccc4o3)cc1)OCCC2C(=O)O (centres unmarked) [Example 203] ?
69 nM

Then N#Cc1cc2c(cc1Oc1ccc(C(=O)Nc3ccc4ccccc4n3)cc1)OCCC2C(=O)O (centres unmarked) [Example 3] ?
12.8 nM

Then N#Cc1cc2c(cc1Oc1ccc(C(=O)Nc3ccc4nc(C(F)(F)F)[nH]c4c3)cc1)OCCC2C(=O)O (centres unmarked) [Example 191] ?
41.5 nM

Then N#Cc1cc2c(cc1Oc1ccc(C(=O)Nc3ccc4ncoc4c3)cc1)OCCC2C(=O)O (centres unmarked) [Example 188] ?
301 nM

Then O=C(Nc1ccc2cc(Cl)ccc2n1)c1ccc(Oc2cc3c(cc2Cl)C(C(=O)O)CCO3)cc1 (centres unmarked) [Example 30] ?
13 nM

Then Cc1cc2nc(NC(=O)c3ccc(Oc4cc5c(cc4C#N)C(C(=O)O)CCO5)cc3)sc2cc1C (centres unmarked) [Example 200] ?
7.6 nM

Then N#Cc1cc2c(cc1Oc1ccc(C(=O)Nc3nc4ccc(F)cc4s3)cc1)OCCC2C(=O)O (centres unmarked) [Example 195] ?
12.9 nM

Then N#Cc1cc2c(cc1Oc1ccc(C(=O)Nc3ccc(Cl)cn3)cc1)OCCC2C(=O)O (centres unmarked) [Example 2] ?
26.7 nM
